# System: E. aerogenes ATCC 13048
# PROTOCOL NOTES: Broth microdilution assay, E. aerogenes
# Assay type: cell-based, Enterobacter aerogenes
# CONDITION DETAILS: Klebsiella aerogenes, ATCC13048, 24 h, 50 µM, 24 h, inhibition of growth, mean ± SD; read-out: Inhibitory effect (%) E. aerogenes ATCC 13048
// values below are reported inhibition at 50 µM
Output spec: scalar in %, unitless text.

Give its inhibition at 50 µM value. Item: C=C(C)[C@@H]1CC[C@]2(C=O)CC[C@]3(C)C(CCC4[C@@]5(C)CC[C@H](O)C(C)(C)C5CC[C@]43C)C12 (stereo partly shown) [Compound 18, betulinic aldehyde] 13.5

Give its inhibition at 50 µM value. Item: CC(C)[C@@H]1CC[C@]2(C(=O)O)CC[C@]3(C)[C@H](CC[C@@H]4[C@@]5(C)CCC(=O)C(C)(C)[C@@H]5CC[C@]43C)[C@@H]12 [Compound 24, dihydrobetulonic acid] 16.8

Give its inhibition at 50 µM value. Item: C=C(C)[C@@H]1CC[C@]2(C(=O)O)CC[C@]3(C)C(CCC4[C@@]5(C)CCC(=O)C(C)(C)C5CC[C@]43C)C12 (stereo partly shown) [Compound 23, betulonic acid] 21.8

Give its inhibition at 50 µM value. Item: C=C(C)C1CCC2(C=NO)CCC3(C)C(CCC4C5(C)CCC(O)C(C)(C)C5CCC43C)C12 (stereo not shown) [Compound 31, betulin-28-oxime] 14.6
